Values were extracted from patent US20020177621A1.

- System: Aureobasidium pullulans IFO 6353 (Ap-1)
- procedureText: Fragrant vapor antifungal activity (impregnated paper disc on cover of inverted agar plate)
- Assay type: cell-based
- conditionNotes: 20 μl fragrance on disc, 72 hours at 27° C., compared with control
assayReadout: Growth: Growth status outside the inhibition zone

COC(=O)c1ccccc1O [Methyl salicylate]; weak
CC(C)=CCC/C(C)=C/CO; good
O=Cc1ccccc1; none

---

- Tested on: Aureobasidium pullulans IFO 6353 (Ap-1)
- procedureText: Fragrant vapor antifungal activity (impregnated paper disc on cover of inverted agar plate)
- Format: cell-based
- conditionNotes: 20 μl fragrance on disc, 72 hours at 27° C., compared with control
assayReadout: Growth: Growth status outside the inhibition zone

Check out these entries, answers already filled in.
CC(C)c1cccc(=O)c(O)c1; good
CC(C)c1ccc(C=O)cc1; none
O=Cc1ccco1; none
COC(C=C(C)CCC=C(C)C)OC; none

Entry under review: O=Cc1ccccc1O . Reported Growth: Growth status outside the inhibition zone?
none
